Target: T1, human CXCR5 (human, UniProt P32302 1-372)
T1 construct: whole, on cells; also called hu-CHO; CHO-CXCR5 cells
T1 sequence (looked up): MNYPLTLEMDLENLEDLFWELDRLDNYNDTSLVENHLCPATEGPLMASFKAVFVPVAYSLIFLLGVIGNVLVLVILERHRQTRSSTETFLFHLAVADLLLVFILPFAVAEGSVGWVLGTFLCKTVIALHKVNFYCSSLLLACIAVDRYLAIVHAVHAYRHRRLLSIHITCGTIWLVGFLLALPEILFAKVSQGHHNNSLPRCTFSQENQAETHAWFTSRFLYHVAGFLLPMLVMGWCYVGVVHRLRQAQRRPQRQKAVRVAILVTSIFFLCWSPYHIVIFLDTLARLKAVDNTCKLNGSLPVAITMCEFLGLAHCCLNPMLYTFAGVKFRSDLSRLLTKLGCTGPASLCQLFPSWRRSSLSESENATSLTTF
Experiment: flow cytometry on CHO-CXCR5 cells, IgG titration
outcome measure: pEC50
By convention, pEC50 is the negative base-10 log of a molar concentration.

52H9 (antibody, V domains shown, tested as human IgG) VH: QVQLVESGGGVVQPGRSLRLSCAASGFTFSSYGMHWVRQAPGKGLEWVAVISYDGSNKYYADSVKGRFTISRDNSKNTLYLQMNSLRAEDTAVYYCAKLSGPTAKFDYWGQGTLVTVSS VL: QSVLTQPASVSGSPGQSVTISCTGTSRDVGGYNFVSWYQQHPGKAPKLMIYDVSNRPSGVSNRFTGSKSGNTASLTISGLQAEDEADYHCSSYRRGDTLVFGGGTKLTVL	8.40

Switching to the query record.
Incoming: What measured pEC50 goes with 13F9 (antibody, V domains shown, tested as human IgG) VH: EVQLLESGGGLIQPGGSLRLSCAASGFIFSRYGMHWVRQAPGKGLEWVAVTSYDGRSKYYTDSVQGRFTISRDNSKNTLDLQMNSLRAEDTAVYYCARLHTVGPWHFDLWGRGTLVTVSS VL: SYELTQPRSVSGSPGQSVTISCTGTSSDVGGYNYVSWYQQHPGKVPKLMIYEVSNRPSGVSNRFSGSKSGNAASLTISGLQAEDEADYYCSSYTSSSTLVFGGGTKLTVL ?
Outgoing: 8.80
